For each record, write down the corresponding NF-kB reporter.
System: RAW-Dual (murine macrophage reporter line)
protocol_details: NF-kB reporter (SEAP) activity fold change vs agonist alone; higher = enhanced NF-kB activity
assay_conditions: modulator concentration 10 µM; agonist: MPLA […]
# output: bare number, no unit

Data request: Tell me reported NF-kB reporter for COc1ccc(C2SCc3cc(C)c(C)cc3CS2)cc1OC , tested with RAW-Dual (murine macrophage reporter line).
Data returned: 1.1

Data request: Follow-up item: O=C1SC(=Cc2ccc([N+](=O)[O-])cc2)C(=O)N1Cc1ccccc1
Data returned: 0.951

Data request: Follow-up item: CS(=O)(=O)c1cccc(C[C@H](NC(=O)c2c(Cl)cc3c(c2Cl)CCN(C(=O)c2ccc4ccoc4c2)C3)C(=O)O)c1
Data returned: 1.97

Data request: Follow-up item: c1ccc(CCn2c3ccccc3c3nnc(SCCN4CCOCC4)nc32)cc1
Data returned: 1.01

Data request: Follow-up item: O=C(NN=Cc1ccccc1C(F)(F)F)c1ccc(=O)[nH]n1
Data returned: 1.08

Data request: Follow-up item: COc1ccccc1C(=O)Nc1ccc(-c2nc3cc(C)ccc3o2)cc1
Data returned: 1.12

Data request: Follow-up item: O=Cc1ccc(OCc2cccc([N+](=O)[O-])c2)c(Br)c1
Data returned: 1.09

Data request: Follow-up item: CC(=O)OCCN(CCOC(C)=O)c1c(C)[nH]c(=O)[nH]c1=O
Data returned: 0.994

Data request: Follow-up item: CN1CCC(COc2cnc(-c3cccc(Cn4nc(-c5cccc(C#N)c5)ccc4=O)c3)nc2)CC1
Data returned: 1.06

Data request: Follow-up item: CN1CCN(c2ccc(C(=O)Nc3n[nH]c4ccc(Cc5cc(F)cc(F)c5)cc34)c(NC3CCOCC3)c2)CC1
Data returned: 1.87

Data request: Follow-up item: CCOc1cccc2sc(=NC(=O)c3ccc(S(=O)(=O)N4CCOCC4)cc3)n(C)c12
Data returned: 0.989

Data request: Follow-up item: Cc1cc(O)c(C(C)C)cc1NC(=O)c1cc(C(C)(C)C)oc1C
Data returned: 1.76

Data request: Follow-up item: CCN(CC)CC#CCOC(=O)C(O)(c1ccccc1)C1CCCCC1.Cl (stereo not given)
Data returned: 1.05

Data request: Follow-up item: COC(=O)[C@H](c1ccccc1Cl)N1CCc2sccc2C1.O=S(=O)(O)O
Data returned: 1.06

Data request: Follow-up item: COc1cc(OC)c(C(=O)CCCN2CCCC2)c(OC)c1.Cl
Data returned: 1

These measurements were taken from the supplement of paper PMC10646978.
